- method-summary: CT900 plasma pharmacokinetics, noncompartmental analysis
- Assay type: in vivo, human
- study-conditions: human, plasma, iv, 12 mg/m2, Vss, 12 mg/m^2 i.v., Cycle 1 Day 1; Geometric Mean, N 5
reported-property: Vd (L)
Numbers only, in L.

# Vd (compound: C#CCN(c1ccc(C(=O)N[C@@H](CCC(=O)N[C@H](CCC(=O)O)C(=O)O)C(=O)O)cc1)[C@H]1CCc2cc3nc(CO)[nH]c(=O)c3cc21 [CT900] ) is 7.59

====

- method-summary: CT900 plasma pharmacokinetics, noncompartmental analysis
- Format: in vivo, human
- study-conditions: human, plasma, iv, 1 mg/m2, Cl, 1 mg/m^2 i.v., Cycle 1 Day 1; Range, N 3
reported-property: clearance

# clearance (molecule: "C#CCN(c1ccc(C(=O)N[C@@H](CCC(=O)N[C@H](CCC(=O)O)C(=O)O)C(=O)O)cc1)[C@H]1CCc2cc3nc(CO)[nH]c(=O)c3cc21" ) is 10.4 to 29.7 mL/min
